Reported IC50 is given for each of the following compounds.
- System: T. cruzi-infected H9C2 cardiomyocytes, high-content imaging
- TEST METHOD NOTES: intracellular T. cruzi amastigote inhibition, imaging, H9C2 host cardiomyocytes, host toxicity (AID 1159565);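 note: infected cells incubated 72 h after plating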
- CONDITION INFO: measured here: H9C2 host cell toxicity
REPORTED METRIC: IC50 (µM)

{"COMPOUND": "CC1=C(C(=O)Nc2ccc(Cl)cc2)C(c2ccncc2)n2ncc(C(=O)Nc3ccccc3)c2N1 (configuration not stated)", "BOUND TYPE": ">", "VAL": 50}
{"COMPOUND": "c1ccc(-c2nc(NCc3ccco3)c3ccccc3n2)nc1", "BOUND TYPE": "=", "VAL": 2}
{"COMPOUND": "COc1cc(OC)cc(C(=O)N[C@@H](CC(C)C)C(=O)NC2(C#N)CC2)c1", "BOUND TYPE": ">", "VAL": 50}
{"COMPOUND": "COc1cc(C(C)C)c(S(C)(=O)=O)cc1C(=O)N1CCN(c2ccccc2Cl)CC1", "BOUND TYPE": "=", "VAL": 20}
{"COMPOUND": "CC(C)(C)c1csc(NC(=O)c2ccc([N+](=O)[O-])s2)n1", "BOUND TYPE": "=", "VAL": 13}
{"COMPOUND": "O=C(Nc1cccc(F)c1)N1CCC(Oc2cccc(-c3cccnc3)c2)CC1", "BOUND TYPE": "=", "VAL": 25}
{"COMPOUND": "CC(C)COC(=O)Nc1ccc(N2CCC(CNS(=O)(=O)c3ccccc3)CC2)c(F)c1", "BOUND TYPE": ">", "VAL": 79}
{"COMPOUND": "O=C(Nc1ccc(C(F)(F)F)cc1)Nc1cccc([N+](=O)[O-])c1", "BOUND TYPE": "=", "VAL": 5}
{"COMPOUND": "O=C(NCC(c1cccs1)N1CCOCC1)c1ccc([N+](=O)[O-])o1 (configuration not stated)", "BOUND TYPE": "=", "VAL": 5}
{"COMPOUND": "CCN(CC)c1ncc(C(=O)c2ccc([N+](=O)[O-])o2)s1", "BOUND TYPE": "=", "VAL": 5}
{"COMPOUND": "CCOc1ccc2nc(NC(=O)c3ccc([N+](=O)[O-])s3)sc2c1", "BOUND TYPE": "=", "VAL": 10}
{"COMPOUND": "Cc1ccc(Nc2nc(-c3ccccn3)cc(N3CCCC(O)C3)n2)cc1 (configuration not stated)", "BOUND TYPE": "=", "VAL": 0.5}
{"COMPOUND": "CN(C)S(=O)(=O)c1cccc(C(=O)Nc2nc(-c3ccccn3)cs2)c1", "BOUND TYPE": "=", "VAL": 7.9}
{"COMPOUND": "NCC(Cc1ccccc1)NC(=O)c1cnc(-c2c[nH]c3ncccc23)s1 (configuration not stated)", "BOUND TYPE": "=", "VAL": 0.63}
{"COMPOUND": "Cc1cc(N(C)C)nc2ccc(Cc3cnc(N)nc3N)cc12", "BOUND TYPE": ">", "VAL": 50}
{"COMPOUND": "COc1ccccc1-n1c(SCC(=O)Nc2ccc3c(c2)OCO3)nc2c(c1=O)SCC2", "BOUND TYPE": ">", "VAL": 50}
{"COMPOUND": "O=C(NCCc1csc(-c2ccc(F)cc2)n1)c1cccs1", "BOUND TYPE": ">", "VAL": 50}
{"COMPOUND": "Cc1cc(Nc2cc(C3CC3)[nH]n2)nc(N2CCC[C@H]2C(N)=O)n1", "BOUND TYPE": "=", "VAL": 0.13}
{"COMPOUND": "COc1ccc(Nc2nc(-c3ccccn3)cc(N3CCCC(O)C3)n2)cc1 (configuration not stated)", "BOUND TYPE": "=", "VAL": 4}
{"COMPOUND": "Cc1ccccc1CNc1cc(C2CC2)nc(-c2nccn2C)n1", "BOUND TYPE": "=", "VAL": 0.79}
{"COMPOUND": "c1ccc(Nc2nc(-c3ccccn3)cc(N3CCOCC3)n2)cc1", "BOUND TYPE": "=", "VAL": 0.63}
{"COMPOUND": "Cc1ccc2c(c1)SC(C(=O)Nc1n[nH]c(-c3ccccn3)n1)C2 (configuration not stated)", "BOUND TYPE": ">", "VAL": 50}

---

- Test system: T. cruzi-infected H9C2 cardiomyocytes, high-content imaging
- TEST METHOD NOTES: intracellular T. cruzi amastigote inhibition, imaging, H9C2 host cardiomyocytes, host toxicity (AID 1159565);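 note: infected cells incubated 72 h after plating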
- CONDITION INFO: measured here: H9C2 host cell toxicity
pIC50: −log10 of the molar value.
Respond with y for pIC50 values of 5 and above, n for values below.

{"MOLECULE": "Cc1nc(N2CC(C)OC(C)C2)sc1C(=O)Nc1ccc2c(c1)OCO2 (stereo not drawn)", "GROUP LABEL": "n"}
{"MOLECULE": "O=C(NCC(c1cccnc1)N1CCc2ccccc2C1)C(=O)Nc1cccc(Cl)c1 (stereo not drawn)", "GROUP LABEL": "n"}
{"MOLECULE": "CCc1cccc(CC)c1-n1c(SCC(=O)N2CC(=O)Nc3ccccc32)nnc1-c1cccnc1", "GROUP LABEL": "n"}
{"MOLECULE": "COc1ccc(-c2cc(C)no2)cc1S(=O)(=O)Nc1ccc(C)c(C)c1", "GROUP LABEL": "n"}
{"MOLECULE": "CC(C)(C)C(=O)NCCc1csc(-c2ccc(F)cc2)n1", "GROUP LABEL": "n"}
{"MOLECULE": "CC(C)Oc1cccc(N2CCC(C(=O)N3CCCN(C(C)C)CC3)CC2)c1", "GROUP LABEL": "n"}
{"MOLECULE": "Nc1cc(-c2ccc3ncnc(N4CCOCC4)c3c2)cnc1N", "GROUP LABEL": "y"}
{"MOLECULE": "O=c1cc(NCCCNC2CCOc3c(I)cc(Cl)cc32)[nH]c2ccccc12 (stereo not drawn)", "GROUP LABEL": "n"}
{"MOLECULE": "CC(=O)Nc1nc(-c2cc(C)ccc2C)c(C)s1", "GROUP LABEL": "n"}
{"MOLECULE": "CC(C)c1nn(-c2nc(N)nc(-c3ccccn3)n2)c(N)c1C1CCCCC1", "GROUP LABEL": "y"}
{"MOLECULE": "CC(C)(C)C(O)(CCc1ccc(Cl)cc1)Cn1cncn1 (stereo not drawn)", "GROUP LABEL": "n"}
{"MOLECULE": "CCn1c(NC(=O)Cc2ccc(F)cc2)nc2ccccc21", "GROUP LABEL": "n"}
{"MOLECULE": "N#Cc1ccc(S(=O)(=O)N2CCN(Cc3cccc(-c4ccncc4)c3)CC2)cc1", "GROUP LABEL": "n"}
{"MOLECULE": "CC(C)(C)CC(=O)NCc1noc(COc2ccccc2)n1", "GROUP LABEL": "n"}
{"MOLECULE": "COc1ccc(-c2cc(C)no2)cc1S(=O)(=O)Nc1ccc(F)c(Cl)c1", "GROUP LABEL": "n"}
{"MOLECULE": "O=C(Nc1ccc(Br)c(Cl)c1)Nc1ccc2c(c1)OCO2", "GROUP LABEL": "n"}
{"MOLECULE": "N#Cc1cnc(Nc2cccc(CCN3CCOCC3)c2)nc1Nc1ccccc1C(N)=O", "GROUP LABEL": "y"}
{"MOLECULE": "Cc1cc(Nc2cc(C3CC3)[nH]n2)nc(N2CCCC2)n1", "GROUP LABEL": "y"}
{"MOLECULE": "Oc1cccnc1-c1n[nH]c(Cc2ccccc2)n1", "GROUP LABEL": "n"}
{"MOLECULE": "Clc1ccc(OCCN2CCCCC2c2cccnc2)c(Cl)c1 (stereo not drawn)", "GROUP LABEL": "n"}
{"MOLECULE": "O=C(NCCc1nc(-c2ccc(F)c(F)c2)n[nH]1)C1CCCCC1", "GROUP LABEL": "n"}
{"MOLECULE": "NC(N)=Nc1nc(-c2ccc(NC(N)=NCCN3CCCC3)cc2)cs1", "GROUP LABEL": "n"}
{"MOLECULE": "CCN(C)Cc1ccc(N2CCC(NS(=O)(=O)c3ccc4c(c3)CCO4)CC2)nc1", "GROUP LABEL": "n"}
{"MOLECULE": "O=C(NC(CO)c1ccc(F)cc1)c1ccc(-c2c[nH]c3ncccc23)s1 (stereo not drawn)", "GROUP LABEL": "y"}
{"MOLECULE": "Clc1ccc(C(CC2CCCCO2)Cn2cncn2)c(Cl)c1 (stereo not drawn)", "GROUP LABEL": "n"}
{"MOLECULE": "Cc1cccnc1CN1CCN(CCCOc2ccc(-c3ccc(C(N)=O)cc3)cc2)CC1", "GROUP LABEL": "n"}
{"MOLECULE": "CN(CC1CCCO1)S(=O)(=O)c1ccc(C(=O)Nc2nc(-c3ccccn3)cs2)cc1 (stereo not drawn)", "GROUP LABEL": "n"}
{"MOLECULE": "COc1ccc(NS(=O)(=O)c2cc(NC(=O)Cc3ccc(C)cc3)ccc2N2CCOCC2)cc1", "GROUP LABEL": "n"}
{"MOLECULE": "CC(=O)Nc1ccc(CN2CCC(N3CC(c4ccccc4)(c4ccccc4)OCC3=O)CC2)cc1", "GROUP LABEL": "n"}
{"MOLECULE": "COc1ccc(C2=NCC(CSc3nnc(-c4ccc5c(c4)OCO5)o3)S2)cc1 (stereo not drawn)", "GROUP LABEL": "n"}
{"MOLECULE": "O=C1CSC(c2cccnc2)N1c1ccc(Cl)cc1Cl (stereo not drawn)", "GROUP LABEL": "n"}
{"MOLECULE": "CCn1nccc1CN(C)C(=O)C=Cc1ccc(Cl)cc1", "GROUP LABEL": "n"}
{"MOLECULE": "Cc1nn(-c2ccccc2)nc1CNC(=O)CN(Cc1ccccn1)Cc1ccccn1", "GROUP LABEL": "n"}
{"MOLECULE": "CCC(=O)Nc1ccc(-c2nc3ccc(Cl)cc3[nH]2)cc1", "GROUP LABEL": "n"}
{"MOLECULE": "CS(=O)(=O)c1cccc(-c2cnc(N)c3c(-c4ccc(CO)cc4)csc23)c1", "GROUP LABEL": "n"}
{"MOLECULE": "Cc1cc(N2CCc3ccccc3C2)nc(Nc2ccc(S(=O)(=O)N3CCOCC3)cc2)n1", "GROUP LABEL": "n"}
{"MOLECULE": "CC(=O)Nc1ccc(-c2noc(CC3CCCN(Cc4cccc(F)c4C)C3)n2)cc1 (stereo not drawn)", "GROUP LABEL": "n"}
{"MOLECULE": "O=C(NCCc1ccn(-c2ccccc2)n1)C1CCCCC1", "GROUP LABEL": "n"}
{"MOLECULE": "CN(C)S(=O)(=O)c1ccc(-c2cnc(N)c(-c3nc4ccc(F)cc4[nH]3)c2)cc1", "GROUP LABEL": "y"}
{"MOLECULE": "O=c1cc(NCCCNCc2c[nH]c3ccc(Br)cc23)[nH]c2ccccc12", "GROUP LABEL": "n"}
{"MOLECULE": "COc1ncc(-c2ccc3ncnc(N4CCOCC4)c3c2)cc1NS(C)(=O)=O", "GROUP LABEL": "y"}
